measured-target: Epidermal growth factor receptor (Homo sapiens)
assay-remarks: EGFR binders on small-molecule microarrays, primary screen, biochemical, small-molecule microarray, 635 nm fluorescence (AID 1104);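 also: score merges 667 nm emission intensity with spot signal to noise over triplicate slides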
measurement-setup: EGFR binding, higher = more signal
composite z-score reference

{"columns": ["compound", "measured-target", "reported-property", "observed"],
 "data": [
  ["CC(C)C[C@@H]1NC(=O)[C@@H]2C[C@H](C(=O)NCCCC[N+](C)(C)C)[C@H](c3ccc(O)cc3)N2C1=O", "Epidermal growth factor receptor (Homo sapiens)", "composite z-score", 0.81]
]}

Problem: What reported composite z-score corresponds to COCCCNC(=O)[C@@]1(Sc2ccc(C)cc2)CC(=O)N(C2CCCCC2)[C@@H]1c1ccc(CO)cc1I on Epidermal growth factor receptor (Homo sapiens)?
Result: 0.549

Problem: Next up: CCOC(=O)C1=C(C(=O)OCC)N(S(=O)(=O)CC[Si](C)(C)C)[C@H](c2ccccc2)CC1
Result: 0.313

Problem: Consider next the compound CC[C@H](C)C(=O)O[C@H]1CC[C@]2(C)C3=C(CCC2C1(C)C)[C@]1(C)CC[C@H]([C@H](C)CCCC(C)C)[C@@]1(C)CC3 (stereo not given in full) in the same way.
Result: 0.65

Problem: Then COC(=O)C1=CC(CCCO)=CC(c2ccc(CN3CCCC3)cc2)N(Cc2sc3ccccc3c2Cl)C=C1C(=O)OC (stereo not given) ?
Result: 0.526

Problem: Thanks! And C=C(COC)C(=O)CC[C@@H](OC(=O)c1cccnc1)c1cccc(OCCO)c1 ?
Result: -0.0749
